test: Peak and trough ranolazine plasma concentrations, IR regimens (Example 3); assay type: in vivo; conditions: human, oral, across the 3 IR dosing regimens, read-out: Mean trough ranolazine plasma concentrations
Property: concentration at 8 h

Molecule: COc1ccccc1OCC(O)CN1CCN(CC(=O)Nc2c(C)cccc2C)CC1 (racemic)
Measured result: 235 to 514 ng/mL

---

assay: MARISA ranolazine plasma concentration; format: in vivo; details: human, oral, 500 mg BID, read-out: Ranolazine Plasma Concentration, Trough, mean (SD)
Property: concentration at 12 h (µg/mL)

Compound: COc1ccccc1OCC(O)CN1CCN(CC(=O)Nc2c(C)cccc2C)CC1 (racemic)
Measured result: 0.846

---

test: Peak and trough ranolazine plasma concentrations, IR regimens (Example 3); assay type: in vivo; settings: human, oral, 400 mg, All Patients, IR 400 mg tid, read-out: Ranolazine Plasma Concentration, Peak, mean (SD)
Property: concentration at 1 h (ng/mL)

Compound: COc1ccccc1OCC(O)CN1CCN(CC(=O)Nc2c(C)cccc2C)CC1 (racemic)
Measured result: 2130

---

test: MARISA ranolazine plasma concentration; assay type: in vivo; conditions: human, oral, 1000 mg BID, read-out: Ranolazine Plasma Concentration, Peak, mean (SD)

Molecule: COc1ccccc1OCC(O)CN1CCN(CC(=O)Nc2c(C)cccc2C)CC1 (racemic)
concentration at 4 h: 2460 ng/mL

---

assay: Peak and trough ranolazine plasma concentrations, IR regimens (Example 3); format: in vivo; settings: female, human, oral, 400 mg, Females, IR 400 mg bid, read-out: Ranolazine Plasma Concentration, Peak, mean (SD)

Molecule: COc1ccccc1OCC(O)CN1CCN(CC(=O)Nc2c(C)cccc2C)CC1 (racemic)
Units: ng/mL
concentration at 1 h: 2170

---

experiment: Peak and trough ranolazine plasma concentrations, IR regimens (Example 3); type: in vivo; settings: human, oral, 267 mg, All Patients, IR 267 mg tid, read-out: Ranolazine Plasma Concentration, Peak, mean (SD)

Compound: COc1ccccc1OCC(O)CN1CCN(CC(=O)Nc2c(C)cccc2C)CC1 (racemic)
concentration at 1 h, ng/mL: 1350

---

assay: Peak and trough ranolazine plasma concentrations, IR regimens (Example 3); assay type: in vivo; conditions: female, human, oral, 267 mg, Females, IR 267 mg tid, read-out: Ranolazine Plasma Concentration, Trough, mean (SD)

Compound: COc1ccccc1OCC(O)CN1CCN(CC(=O)Nc2c(C)cccc2C)CC1 (racemic) [Ranolazine]
concentration at 8 h, ng/mL: 316

---

assay: Solubility of ranolazine in aqueous solutions by pH; assay type: physicochemical; conditions: aqueous solution, aqueous buffer; Solution pH 6.46
Property: solubility (µg/mL)

Molecule: COc1ccccc1OCC(O)CN1CCN(CC(=O)Nc2c(C)cccc2C)CC1 (racemic) [Ranolazine]
Units: µg/mL
Measured result: 1630

---

test: MARISA ranolazine plasma concentration; format: in vivo; conditions: human, oral, 1500 mg BID, read-out: Ranolazine Plasma Concentration, Trough, mean (SD)

Compound: COc1ccccc1OCC(O)CN1CCN(CC(=O)Nc2c(C)cccc2C)CC1 (racemic)
Units: ng/mL
concentration at 12 h: 3270

---

assay: Solubility of ranolazine in aqueous solutions by pH; format: physicochemical; conditions: aqueous solution, pH 4.9, aqueous buffer; Solution pH 4.90

Compound: COc1ccccc1OCC(O)CN1CCN(CC(=O)Nc2c(C)cccc2C)CC1 (racemic) [Ranolazine]
Units: mg/mL
solubility: 76.4
